Biological target: BRD4(2) (Homo sapiens)
Construct: against the first and second bromodomains of BRD2, BRD3 and BRD4
Test: TR-FRET assay, BRD4(2)
Measured parameter: IC50

Request: Can you share its IC50? I mean this molecule: CC1=C(C#N)c2nc(N)c(C#N)c(C)c2/C1=C\c1ccc(-c2cc(C(=O)O)ccc2Cl)o1
Result: > 50 µM

* * *

Test system: MDA-MB-231 cells
Test: Cell viability assay (MTT), MDA-MB-231
Type: cell-based
Details: Homo sapiens, MDA-MB-231; MTT, 72 h; read-out: IC50 antiproliferative, MDA-MB-231
Procedure: MDA-MB-231cells were purchased from American Type Culture Collection (ATCC, Manassas, VA, USA). Cells were cultured in DMEM with 10% foetal bovine serum and incubated with 5% CO2. […] Cells were dispensed in 96-well plates at a density of 5 × 10^4 cells/ml. […] Cell viability was measured by the MTT assay.
Measured parameter: pIC50
Units for pIC50: none; it is -log10 of a concentration expressed in mol/L.

Request: Can you share its pIC50? I mean this compound: CC1=C(C#N)c2nc(N)c(C#N)c(C)c2/C1=C\c1ccc(-c2cc(C(=O)O)ccc2Cl)o1 [AM879]
Result: 5.98

* * *

Target: BRD4(1) (Homo sapiens)
Construct: against the first and second bromodomains of BRD2, BRD3 and BRD4
Assay: TR-FRET assay, BRD4(1)
Method: The assay was performed by TR-FRET technology using recombinant bromodomain and BET Ligand[27]. The compounds were diluted in 100% DMSO. They were diluted 20 fold in 5% DMSO in Reaction Buffer and 2 µl of the dilution was added to a 20 µl reaction. The reaction mixture incubated for 180 min prior to reading the TR-FRET signal. TR-FRET was recorded as the ratio of the fluorescence of the acceptor and the donor dyes (acceptor/donor). […]
Measured parameter: IC50

Request: Can you share its IC50? I mean this compound: CC1=C(C#N)c2nc(N)c(C#N)c(C)c2/C1=C\c1ccc(-c2cc(C(=O)O)ccc2Cl)o1
Result: > 50 µM

* * *

Target: ATAD2 bromodomain (Homo sapiens, UniProt Q6PL18)
Sequence (Q6PL18 980-1092 limits assumed): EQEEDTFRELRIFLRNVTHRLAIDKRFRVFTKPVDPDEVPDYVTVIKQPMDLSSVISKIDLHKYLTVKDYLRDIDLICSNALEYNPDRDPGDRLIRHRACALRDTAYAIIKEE
Experiment: TR-FRET assay, ATAD2 bromodomain
Type: binding
Conditions: read-out: IC50 against ATAD2 bromodomain
Measured parameter: IC50 (nM)
Respond with the bare value in nM.

Request: Can you share its IC50? I mean this compound: COc1cc(Cl)c(C(=O)N[C@@H](CN[C@H]2CC[C@@H](N)CC2)Cc2ccc(C#N)cc2)cc1-c1ccc(CN[C@H](C)c2ccc(C)cc2)o1 [BAY-850, reference compound]
Result: 242

* * *

Target: BRD2(2) (Homo sapiens)
Construct: against the first and second bromodomains of BRD2, BRD3 and BRD4
Sequence (P25440 344-453 limits assumed): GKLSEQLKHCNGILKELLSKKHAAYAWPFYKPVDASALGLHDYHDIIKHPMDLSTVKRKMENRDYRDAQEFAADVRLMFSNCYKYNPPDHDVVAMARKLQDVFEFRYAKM
Test: TR-FRET assay, BRD2(2)
pIC50: −log10 of the molar value.
Measured parameter: pIC50

Request: Can you share its pIC50? I mean this compound: CC1=C(C#N)c2nc(N)c(C#N)c(C)c2/C1=C\c1ccc(-c2cc(C(=O)O)ccc2Cl)o1
Result: < 4.30

* * *

Biological target: ATAD2 bromodomain (Homo sapiens, UniProt Q6PL18)
Assay: TR-FRET assay, ATAD2 bromodomain
Assay type: binding
Conditions: Table 3, read-out: IC50 ATAD2
Experimental: The assay was performed by TR-FRET technology using recombinant bromodomain and BET Ligand[27]. The compounds were diluted in 100% DMSO. They were diluted 20 fold in 5% DMSO in Reaction Buffer and 2 µl of the dilution was added to a 20 µl reaction. The reaction mixture incubated for 180 min prior to reading the TR-FRET signal. TR-FRET was recorded as the ratio of the fluorescence of the acceptor and the donor dyes (acceptor/donor). […]
Measured parameter: IC50 (µM)
Respond with the bare value in µM.

Request: Param readout= IC50; system= ATAD2 bromodomain (Homo sapiens, UniProt Q6PL18); entry= CC1=C(C#N)c2nc(N)c(C#N)c(C)c2/C1=C\c1ccc(-c2cc(C(=O)O)ccc2Cl)o1 [AM879] ; returns value.
Result: 3.56
